target: Neurotensin receptor type 1 (Homo sapiens, UniProt P30989); assay: Agonist activity at human NTSR1 expressed in HEK293 cells assessed as Galphaq-mediated modulation of IP production incubated for 90 mins by IP-one HTRF assay
Sequence (P30989 whole entry): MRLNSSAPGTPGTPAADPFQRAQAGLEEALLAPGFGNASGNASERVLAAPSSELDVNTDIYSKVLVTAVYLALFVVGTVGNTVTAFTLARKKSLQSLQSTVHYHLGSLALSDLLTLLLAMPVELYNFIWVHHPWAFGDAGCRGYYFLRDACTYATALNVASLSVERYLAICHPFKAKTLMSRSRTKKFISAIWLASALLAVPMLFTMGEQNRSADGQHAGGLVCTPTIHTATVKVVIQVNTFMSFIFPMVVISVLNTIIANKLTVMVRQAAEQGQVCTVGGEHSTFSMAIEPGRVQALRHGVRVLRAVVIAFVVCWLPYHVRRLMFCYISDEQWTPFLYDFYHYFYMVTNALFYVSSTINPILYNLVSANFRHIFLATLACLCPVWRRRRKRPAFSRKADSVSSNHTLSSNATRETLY
Square brackets hold non-standard residues; d marks the D form. Peptide text beside a SMILES is read from it. Cav = NC(N)=NOCC[C@H](N)C(=O)O
For each entry below, report its EC50 value.
Record the result as number plus unit.

### Prompt Checklist item: EC50 tested on Neurotensin receptor type 1 (Homo sapiens, UniProt P30989), entry CC[C@H](C)[C@H](NC(=O)[C@H](Cc1ccc(O)cc1)NC(=O)[C@@H]1CCCN1)C(=O)N[C@@H](CC(C)C)C(=O)O (H-PYIL-OH) , value?
### Response 3200 nM

### Prompt Follow-up item: CC[C@H](C)[C@H](NC(=O)[C@H](Cc1ccc(O)cc1)NC(=O)[C@@H]1CCCN1C(=O)[C@H](CCON=C(N)N)NC(=O)[C@@H](N)CCCCN)C(=O)N[C@@H](CC(C)C)C(=O)O (H-K[Cav]PYIL-OH)
### Response 0.82 nM

### Prompt Next record, please: CC[C@H](C)[C@H](NC(=O)[C@H](Cc1ccc(O)cc1)NC(=O)[C@@H]1CCCN1C(=O)[C@H](CCCCN)NC(=O)[C@@H](N)CCON=C(N)N)C(=O)N[C@@H](CC(C)C)C(=O)O (H-[Cav]KPYIL-OH)
### Response 0.85 nM

====

assay: Stability of compound in PBS buffer assessed as parent compound remaining at pH 2.0 measured after 30 days by RP-HPLC/UV/Vis spectroscopic analysis; type: physicochemical; settings: time 30 day, read-out: Stability
Square brackets hold non-standard residues; d marks the D form. Peptide text beside a SMILES is read from it. Cav = NC(N)=NOCC[C@H](N)C(=O)O
reported_endpoint: remaining at 720 h

### Prompt Name the reported remaining at 720 h value associated with the compound `CC[C@H](C)[C@H](NC(=O)[C@H](Cc1ccc(O)cc1)NC(=O)[C@@H]1CCCN1C(=O)[C@H](CCCNC(=N)N)NC(=O)[C@@H](N)CCCNC(=N)N)C(=O)N[C@@H](CC(C)C)C(=O)O`
### Response > 97%

### Prompt Repeat for the following compound: CC[C@H](C)[C@H](NC(=O)[C@H](Cc1ccc(O)cc1)NC(=O)[C@@H]1CCCN1C(=O)[C@H](CCON=C(N)N)NC(=O)[C@@H](N)CCCCN)C(=O)N[C@@H](CC(C)C)C(=O)O (H-K[Cav]PYIL-OH)
### Response > 97%

### Prompt Further, for `CC[C@H](C)[C@H](NC(=O)[C@H](Cc1ccc(O)cc1)NC(=O)[C@@H]1CCCN1C(=O)[C@H](CCON=C(N)N)NC(=O)[C@@H](N)CCCN=C(N)N)C(=O)N[C@@H](CC(C)C)C(=O)O` ?
### Response > 94%
